Provenance of the data: ChEMBL document CHEMBL4229332

# target-or-test-system: 5-hydroxytryptamine receptor 6 (Homo sapiens, UniProt P50406)
# Sequence (P50406 whole entry): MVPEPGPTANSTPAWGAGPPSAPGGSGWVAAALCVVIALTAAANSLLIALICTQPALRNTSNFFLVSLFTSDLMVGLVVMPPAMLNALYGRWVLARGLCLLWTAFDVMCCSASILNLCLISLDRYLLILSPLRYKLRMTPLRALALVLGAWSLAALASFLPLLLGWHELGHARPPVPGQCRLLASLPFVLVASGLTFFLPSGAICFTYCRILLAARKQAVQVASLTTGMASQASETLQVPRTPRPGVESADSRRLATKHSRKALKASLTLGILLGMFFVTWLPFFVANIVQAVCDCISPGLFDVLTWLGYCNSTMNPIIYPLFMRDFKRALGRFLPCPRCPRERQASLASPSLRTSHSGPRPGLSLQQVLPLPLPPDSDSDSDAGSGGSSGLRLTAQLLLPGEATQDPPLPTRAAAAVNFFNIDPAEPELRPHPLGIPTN
# Lookup of reported Ki keyed by entry
Numeric answer only, unit µM assumed.

Sample answers from the record:
- O=S(=O)(c1cncc2ccccc12)N1CCC[C@H]1CCN1CCN(c2nsc3ccccc23)CC1: 0.313
- O=S(=O)(c1ccnc2ccccc12)N1CCCC[C@@H]1CCN1CCN(c2nsc3ccccc23)CC1: 1.26
- O=S(=O)(c1cncc2ccccc12)N1CCC[C@H]1CCN1CCN(c2noc3ccccc23)CC1: 0.497

Attention now turns to another entry.
Ki on 5-hydroxytryptamine receptor 6 (Homo sapiens, UniProt P50406) for O=c1[nH]c2c(N3CCN(CC[C@@H]4CCCN4S(=O)(=O)c4cncc5ccccc45)CC3)cccc2o1 is 2.99
